test system: Entamoeba histolytica; assay: […] activity against Entamoeba histolytica HM-1:IMSS after 72 hrs by eosin-staining method; type: functional, organism-based
value.type: IC50 (nM)

(P) COC(=O)c1ccccc1[S+]([O-])CCn1c([N+](=O)[O-])cnc1C (stereo not drawn)
(Q) COC(=O)c1ccccc1SCCn1c([N+](=O)[O-])cnc1C
Which is greater in IC50, the first item P or the second item Q ? Answer format: the label of the selected item. Q
(Q: 28 nM, P: 15 nM)

These entries and their values trace back to ChEMBL document CHEMBL2062512.
